- TARGET_SYSTEM: CDK12/Cyclin K (Homo sapiens)
- Sequence (O75909 whole entry, the tested form may be a part): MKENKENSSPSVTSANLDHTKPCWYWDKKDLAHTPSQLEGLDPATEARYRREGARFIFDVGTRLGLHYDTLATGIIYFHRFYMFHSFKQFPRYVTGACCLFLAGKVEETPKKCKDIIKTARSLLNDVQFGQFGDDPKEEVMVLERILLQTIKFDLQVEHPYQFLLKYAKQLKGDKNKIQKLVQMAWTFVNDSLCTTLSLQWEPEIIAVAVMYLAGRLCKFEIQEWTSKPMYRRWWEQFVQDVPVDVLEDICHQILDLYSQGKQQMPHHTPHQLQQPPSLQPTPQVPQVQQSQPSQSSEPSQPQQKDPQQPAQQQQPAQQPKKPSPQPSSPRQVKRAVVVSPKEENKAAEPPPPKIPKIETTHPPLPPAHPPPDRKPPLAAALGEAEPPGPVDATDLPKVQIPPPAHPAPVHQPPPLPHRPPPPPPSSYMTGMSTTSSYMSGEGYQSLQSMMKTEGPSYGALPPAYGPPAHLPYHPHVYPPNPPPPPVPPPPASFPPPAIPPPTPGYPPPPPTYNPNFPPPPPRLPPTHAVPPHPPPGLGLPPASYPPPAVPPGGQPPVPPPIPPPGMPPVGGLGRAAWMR
- Sequence (Q9NYV4 whole entry, the tested form may be a part): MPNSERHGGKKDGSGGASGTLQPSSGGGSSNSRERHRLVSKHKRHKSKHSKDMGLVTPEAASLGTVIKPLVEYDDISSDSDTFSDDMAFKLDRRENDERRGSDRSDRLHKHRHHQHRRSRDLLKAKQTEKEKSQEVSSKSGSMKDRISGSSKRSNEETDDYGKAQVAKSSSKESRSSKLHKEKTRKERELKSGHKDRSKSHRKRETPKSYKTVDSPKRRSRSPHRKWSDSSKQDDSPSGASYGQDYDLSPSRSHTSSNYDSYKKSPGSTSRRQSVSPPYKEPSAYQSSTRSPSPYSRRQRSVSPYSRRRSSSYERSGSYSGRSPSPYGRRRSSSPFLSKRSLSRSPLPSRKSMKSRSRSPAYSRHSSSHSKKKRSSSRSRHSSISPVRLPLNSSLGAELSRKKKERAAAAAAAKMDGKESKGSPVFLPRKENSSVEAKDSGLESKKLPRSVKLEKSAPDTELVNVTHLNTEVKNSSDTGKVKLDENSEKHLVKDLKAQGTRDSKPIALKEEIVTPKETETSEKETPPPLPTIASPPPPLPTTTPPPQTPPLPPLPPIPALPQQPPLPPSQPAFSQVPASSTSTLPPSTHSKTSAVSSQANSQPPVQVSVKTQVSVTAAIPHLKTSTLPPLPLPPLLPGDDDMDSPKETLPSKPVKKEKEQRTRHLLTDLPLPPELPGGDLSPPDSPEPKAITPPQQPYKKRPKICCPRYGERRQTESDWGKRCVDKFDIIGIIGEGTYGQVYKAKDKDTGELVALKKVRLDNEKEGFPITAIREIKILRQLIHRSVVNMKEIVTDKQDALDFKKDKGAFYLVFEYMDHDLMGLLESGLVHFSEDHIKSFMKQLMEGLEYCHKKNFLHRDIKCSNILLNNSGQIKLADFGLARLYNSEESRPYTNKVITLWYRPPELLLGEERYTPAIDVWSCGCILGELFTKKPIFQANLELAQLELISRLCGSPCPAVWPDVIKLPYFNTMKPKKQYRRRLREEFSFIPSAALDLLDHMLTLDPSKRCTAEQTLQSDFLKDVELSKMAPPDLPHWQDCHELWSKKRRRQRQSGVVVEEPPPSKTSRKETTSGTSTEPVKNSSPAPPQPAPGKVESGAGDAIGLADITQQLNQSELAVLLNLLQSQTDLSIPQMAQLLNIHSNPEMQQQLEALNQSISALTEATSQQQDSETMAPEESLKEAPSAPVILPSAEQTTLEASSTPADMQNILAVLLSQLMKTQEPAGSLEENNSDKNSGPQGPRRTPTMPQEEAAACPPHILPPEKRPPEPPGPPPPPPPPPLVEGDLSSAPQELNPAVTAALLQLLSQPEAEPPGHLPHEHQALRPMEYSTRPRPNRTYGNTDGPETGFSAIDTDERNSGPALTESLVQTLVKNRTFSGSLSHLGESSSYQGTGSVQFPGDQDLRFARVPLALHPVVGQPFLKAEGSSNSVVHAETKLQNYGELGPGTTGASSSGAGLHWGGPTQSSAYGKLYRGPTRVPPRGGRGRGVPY
- EXPERIMENT: Inhibition of N-terminal FLAG-tagged human full-length CDK12 (1 to 1490 residues)/N-terminal His-tagged CycK (1 to 580 residues) expressed in Sf9 cells assessed as reduction in ATP-dependent ULight-4E-BP1 (Thr37/Thr46) substrate peptide phosphorylation pre-incubated for 60 mins by LANCE Ultra assay
pIC50: −log10 of the molar value.
List of pIC50 values.

| ENTRY_SMILES | QUALIFYING_SIGN | pIC50 |
| --- | --- | --- |
| Cn1cc(-c2ccc(C(=O)N3CCC(Nc4ccc(C#N)cn4)CC3)cc2)cn1 | = | 4.64 |
| Cn1cc(-c2ccc(N(C(=O)CCc3ccccc3)[C@H]3CC[C@H](Nc4ccc(C#N)cn4)CC3)cc2)cn1 | = | 6.80 |
| Cn1cccc(-c2ccc(N(C(=O)NCc3ccccc3)[C@H]3CC[C@H](Nc4ccc(C#N)cn4)CC3)cc2)c1=O | = | 6.60 |
| COc1ccc(NC2CCN(S(=O)(=O)c3ccc(-c4cnn(C)c4)cc3)CC2)nc1 | < | 4.52 |
| Cn1cc(-c2ccc(S(=O)(=O)N3CCC(Nc4ccccn4)CC3)cc2)cn1 | < | 4.52 |
| Cn1cc(-c2ccc(S(=O)(=O)N3CCC(Nc4ccc(C#N)cn4)CC3)cc2)cn1 | = | 6.44 |
| Cn1cc(-c2ccc(N(C(=O)NCc3ccccc3)[C@H]3CC[C@H](Nc4ccc(C#N)cn4)CC3)cc2)cn1 | = | 7.20 |
| Cn1cc(-c2ccc(N[C@H]3CC[C@H](Nc4ccc(C#N)cn4)CC3)cc2)cn1 | = | 5.07 |
| CCNC(=O)N(c1ccc(-c2cnn(C)c2)cc1)[C@H]1CC[C@H](Nc2ccc(C#N)cn2)CC1 | = | 6.34 |
| Cn1cc(-c2ccc(S(=O)(=O)N3CCC(Nc4ccc(C#N)cc4)CC3)cc2)cn1 | < | 4.52 |
| N#Cc1ccc(N[C@H]2CC[C@H](N(C(=O)NCc3ccccc3)c3ccc(-c4cccnc4)cc3)CC2)nc1 | = | 7.23 |
| CC(=O)N(c1ccc(-c2cnn(C)c2)cc1)[C@H]1CC[C@H](Nc2ncc3ccccc3n2)CC1 | = | 7.89 |
| CC(=O)N(c1ccc(-c2cnn(C)c2)cc1)[C@H]1CC[C@@H](Nc2ccc(C#N)cn2)CC1 | < | 4.52 |
| Cn1cc(-c2ccc(S(=O)(=O)N3CCC(Nc4cccc(C#N)n4)CC3)cc2)cn1 | < | 4.52 |
| Cn1cc(-c2ccc(S(=O)(=O)N3CCC(Nc4cc(C#N)ccn4)CC3)cc2)cn1 | < | 4.52 |
| Cn1cc(-c2ccc(N(C(=O)OCc3ccccc3)[C@H]3CC[C@H](Nc4ccc(C#N)cn4)CC3)cc2)cn1 | = | 6.19 |
| Cn1c(-c2ccc(N(C(=O)NCc3ccccc3)[C@H]3CC[C@H](Nc4ccc(C#N)cn4)CC3)cc2)cccc1=O | = | 6.51 |
| Cn1cc(-c2ccc(N(C(=O)NCC3CCCCC3)[C@H]3CC[C@H](Nc4ccc(C#N)cn4)CC3)cc2)cn1 | = | 7.00 |

---

- EXPERIMENT: Solubility in aqueous buffer solution at pH 6.8 by UV absorbance spectroscopy
- Format: physicochemical
Rule: solubility of 4 µg/mL or more gives rule met; anything lower gives rule not met.

| ENTRY_SMILES | CATEGORY |
| --- | --- |
| Cn1cc(-c2ccc(N(C(=O)NCc3ccccc3)[C@H]3CC[C@H](Nc4ccc(C#N)cn4)CC3)cc2)ccc1=O | rule met |
| Cn1cc(-c2ccc(N(C(=O)NCc3ccccc3)[C@H]3CC[C@H](Nc4ccc(C#N)cn4)CC3)cc2)cn1 | rule not met |
| Cn1c(-c2ccc(N(C(=O)NCc3ccccc3)[C@H]3CC[C@H](Nc4ccc(C#N)cn4)CC3)cc2)cccc1=O | rule not met |
| Cn1ccc(-c2ccc(N(C(=O)NCc3ccccc3)[C@H]3CC[C@H](Nc4ccc(C#N)cn4)CC3)cc2)cc1=O | rule not met |
| Cn1cccc(-c2ccc(N(C(=O)NCc3ccccc3)[C@H]3CC[C@H](Nc4ccc(C#N)cn4)CC3)cc2)c1=O | rule met |
| N#Cc1ccc(N[C@H]2CC[C@H](N(C(=O)NCc3ccccc3)c3ccc(-c4cccnc4)cc3)CC2)nc1 | rule not met |
